Target: T1, UPF3B-WT (human, UniProt Q9BZI7-2 1-470)
T1 sequence: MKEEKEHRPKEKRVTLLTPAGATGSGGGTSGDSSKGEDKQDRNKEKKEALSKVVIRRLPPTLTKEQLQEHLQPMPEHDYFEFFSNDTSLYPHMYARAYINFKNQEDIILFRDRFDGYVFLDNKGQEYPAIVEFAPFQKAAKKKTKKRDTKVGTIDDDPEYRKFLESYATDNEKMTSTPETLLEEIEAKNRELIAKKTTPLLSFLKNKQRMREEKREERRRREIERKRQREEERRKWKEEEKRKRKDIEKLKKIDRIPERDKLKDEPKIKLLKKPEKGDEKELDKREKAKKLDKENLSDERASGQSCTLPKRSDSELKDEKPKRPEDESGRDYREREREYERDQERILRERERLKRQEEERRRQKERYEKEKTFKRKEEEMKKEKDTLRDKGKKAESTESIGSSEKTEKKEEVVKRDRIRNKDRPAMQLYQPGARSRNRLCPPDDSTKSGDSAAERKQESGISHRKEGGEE
Assay: fluorescence anisotropy; FA: 5 nM probe, 150 mM NaCl, 25 mM HEPES pH 7.45, 1 mM TCEP, 20 C; EMSA: 250 nM probe, 25 mM HEPES pH 7.45, 2 mM MgCl2, 150 mM NaCl, 0.5 mM TCEP, on ice
Settings: protein: recombinant; tags: 6xHis removed by TEV; label: 5' HEX on strand 1; blunt
This listing pairs binders with measured pKd.
Bear in mind: pKd is minus log10 of a mol/L concentration; give just that figure.

24mer dsDNA (dsDNA) DNA 1: CCCTGAGCTGACGCAGCACCTGGG DNA 2: CCCAGGTGCTGCGTCAGCTCAGGG : 7.21

# evaluate next
For the binder 24mer dsRNA (dsRNA) RNA 1: CCCUGAGCUGACGCAGCACCUGGG RNA 2: CCCAGGUGCUGCGUCAGCUCAGGG , give its measured pKd value. 7.82
